target: Glycine receptor subunit alpha-1 (Homo sapiens, UniProt P23415); assay: Activity at human alpha-1GlyR expressed in HEK293 cells by FMP assay; type: cell-based
Sequence (P23415 whole entry): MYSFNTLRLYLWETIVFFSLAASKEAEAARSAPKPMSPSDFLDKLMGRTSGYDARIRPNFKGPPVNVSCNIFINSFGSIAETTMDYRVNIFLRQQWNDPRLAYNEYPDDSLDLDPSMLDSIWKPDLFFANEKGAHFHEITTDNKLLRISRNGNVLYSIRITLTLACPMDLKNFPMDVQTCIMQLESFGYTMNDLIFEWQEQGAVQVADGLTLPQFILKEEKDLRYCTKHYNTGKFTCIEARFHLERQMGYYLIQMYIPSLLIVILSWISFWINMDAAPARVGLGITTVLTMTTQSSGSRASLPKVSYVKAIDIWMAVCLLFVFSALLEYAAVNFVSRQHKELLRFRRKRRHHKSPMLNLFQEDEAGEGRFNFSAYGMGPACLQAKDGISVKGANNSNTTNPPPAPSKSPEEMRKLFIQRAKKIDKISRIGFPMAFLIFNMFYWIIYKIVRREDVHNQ
measure: IC50

Which IC50 value is on record for COC1C[C@@]23C4C[C@@H](C(C)(C)C)C25C(OC(=O)[C@@H]5OC)O[C@@]3(C(=O)O1)C(=O)O4 (stereo not given in full) ?
> 100 µM

Which IC50 value is on record for CC(C)(C)[C@@H]1CC2OC(=O)C34OC5OC(=O)[C@H](O)C51[C@@]23CC1OC(=O)[C@](C)(O)[C@@]14O (stereo not given in full) ?
> 100 µM

Which IC50 value is on record for C[C@@H]1CO[C@H]2C[C@@]34C5C[C@@H](C(C)(C)C)C36C(OC[C@@H]6O)O[C@]4(C(=O)O5)[C@@]12O (stereo not given in full) ?
> 100 µM

Which IC50 value is on record for COCO[C@H]1C(=O)O[C@H]2O[C@@]34OC(=O)[C@@H]5C[C@@H](C(C)(C)C)[C@@]21[C@]53C[C@@H]1OC(=O)[C@@H](C)[C@@]14O [10-METHOXYMETHYLOXY-GINKGOLIDE A] ?
> 100 µM

Which IC50 value is on record for C[C@@H]1C(=O)OC2[C@@H]3OCO[C@H]4C(=O)OC5OC6(C(=O)OC7C[C@@H](C(C)(C)C)C54[C@]736)[C@]21O (stereo not given in full) ?
12 µM

Which IC50 value is on record for COC(=O)C(C)[C@H]1CC[C@@]23C4C[C@@H](C(C)(C)C)C25C(OC(=O)[C@@H]5O)O[C@]13C(=O)O4 (stereo not given in full) ?
> 100 µM

Which IC50 value is on record for CCN[C@@H]1C2OC(=O)[C@]34OC5OC(=O)[C@H](O)C5([C@@H]1C(C)(C)C)[C@@]23[C@@H](O)[C@@H]1OC(=O)[C@@H](C)[C@@]14O (stereo not given in full) ?
> 100 µM

Which IC50 value is on record for COC(=O)[C@H](OC)C12C(OC)O[C@@]34C(=O)OC(C[C@H]1C(C)(C)C)[C@]23C[C@@H]1OC(=O)[C@@H](C)[C@@]14O (stereo not given in full) ?
> 100 µM

Which IC50 value is on record for C[C@@H]1C(=O)O[C@H]2[C@H](O)[C@]34C5OC(=O)[C@@]3(OC3OC(=O)[C@H](O)C34[C@H](C(C)(C)C)[C@@H]5OC(=O)Cc3ccccc3)[C@@]12O (stereo not given in full) ?
> 100 µM

Which IC50 value is on record for CN[C@@H]1C2OC(=O)[C@]34OC5OC(=O)[C@H](O)C5([C@@H]1C(C)(C)C)[C@@]23[C@@H](O)[C@@H]1OC(=O)[C@@H](C)[C@@]14O (stereo not given in full) ?
> 100 µM
